Source of measurements: patent US8715761B2

test: Taste testing in water by a panel of experienced tasters; assay type: in vivo; details: 10 ppm
METRIC_NAME: Taste results in water

>>> assay_value("O=C(CCc1ccncc1)c1ccccc1O")
"sweet"

---

assay: Taste testing in water by a panel of experienced tasters; assay type: in vivo; details: 100 ppm
METRIC_NAME: Taste results in water

Q: For the compound COc1ccc(CCC(=O)c2ccc(O)cc2O)cn1 , report Taste results in water.
A: 100 ppm, sweet
